Entry source: patent US20190233498A1

The following binders are shown together with reported IC50, 0.1 nM PACAP27-induced PAC1-R mediated cAMP increase values.
- tested_target: T1, human PACAP27 (human, C-terminal leucine is amidated; 125I-labelled in Example 10)
- T1 peptide: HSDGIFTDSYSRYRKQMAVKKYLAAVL
- assay_explanation: cell-based or functional assay
Express the result in nM but write the number alone.

Below, each entry is followed by its recorded IC50, 0.1 nM PACAP27-induced PAC1-R mediated cAMP increase result.
Find the measured IC50, 0.1 nM PACAP27-induced PAC1-R mediated cAMP increase of anti-PACAP antibody Ab17 (antibody, human IgG1, kappa, N297A, V domains shown, full-length rabbit/human chimeric antibody) VH: QSVEESGGRLVTPGTPLTLTCTVSGFSLSSAAMNWVRQAPGKGLEWIGIFDPYSSTYYASWAKGRFTISKTSSTTVDLKMTSPTTEDTATYFCARGGGEFFIWGPGTLVTVSS VL: AQVLTQTPSSVSAAVGGTVTINCQSSQSVYKNKYLSWYQQKVGQPPKFLIYQASNLASGVPSRFKGSGSGTQFTLTISDLECDDAATYYCAGGYSGNMVDFGGGTEVVVKR and report it.
0.0776

Find the measured IC50, 0.1 nM PACAP27-induced PAC1-R mediated cAMP increase of anti-PACAP antibody Ab8 (antibody, human IgG1, kappa, N297A, V domains shown, full-length rabbit/human chimeric antibody) VH: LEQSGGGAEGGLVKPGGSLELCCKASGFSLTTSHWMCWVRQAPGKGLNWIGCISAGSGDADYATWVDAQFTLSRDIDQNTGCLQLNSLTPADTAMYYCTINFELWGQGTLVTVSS VL: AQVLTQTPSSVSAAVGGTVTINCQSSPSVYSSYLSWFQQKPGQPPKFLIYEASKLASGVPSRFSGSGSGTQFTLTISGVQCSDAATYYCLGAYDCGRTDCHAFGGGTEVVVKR and report it.
0.049

Find the measured IC50, 0.1 nM PACAP27-induced PAC1-R mediated cAMP increase of anti-PACAP antibody Ab4.H (antibody, human IgG1, kappa, N297A, V domains shown, humanized form of Ab4, full length) VH: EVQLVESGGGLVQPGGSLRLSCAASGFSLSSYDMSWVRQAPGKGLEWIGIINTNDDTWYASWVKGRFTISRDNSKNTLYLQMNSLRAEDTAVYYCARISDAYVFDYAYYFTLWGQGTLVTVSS VL: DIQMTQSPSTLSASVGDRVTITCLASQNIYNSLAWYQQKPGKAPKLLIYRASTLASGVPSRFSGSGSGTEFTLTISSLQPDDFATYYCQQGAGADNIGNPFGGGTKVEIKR and report it.
0.294

Then this binder:
Find the measured IC50, 0.1 nM PACAP27-induced PAC1-R mediated cAMP increase of anti-PACAP antibody Ab9 (antibody, human IgG1, kappa, N297A, V domains shown, full-length rabbit/human chimeric antibody) VH: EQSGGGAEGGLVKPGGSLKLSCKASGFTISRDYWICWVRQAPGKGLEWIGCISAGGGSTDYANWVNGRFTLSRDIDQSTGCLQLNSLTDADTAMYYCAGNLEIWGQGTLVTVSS VL: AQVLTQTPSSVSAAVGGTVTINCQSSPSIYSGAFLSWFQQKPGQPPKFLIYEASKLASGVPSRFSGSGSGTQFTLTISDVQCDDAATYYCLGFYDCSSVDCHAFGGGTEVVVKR and report it.
2.84
